Each record here notes measured protein stability index.
Tested on: Saccharomyces cerevisiae
assay-notes: protein stability index of tFT-peptide fusion (C-terminal peptide) (PSI (0-1 scale)); higher = more stable (slower turnover)
test-context: genetic background: wild type; temperature: 30 C
parameter-measured: protein stability index

INSERT INTO results (sequence_data, reported_result) VALUES
  ('ASNGVRLSEIGW [SNZ1 C-terminal 12 aa]', 0.694),
  ('QQFYKDVYAMQD [THI2 C-terminal 12 aa]', 0.641),
  ('DRVQRAFPKPDT [GLG2 C-terminal 12 aa]', 0.686),
  ('DIDDDVGEDSED [RMR1 C-terminal 12 aa]', 0.662),
  ('VEIPTVESTKSG [RNA14 C-terminal 12 aa]', 0.754),
  ('MKGYGFEVPSAN [COX17 C-terminal 12 aa]', 0.663),
  ('TVFETLTLHSAN [JSN1 C-terminal 12 aa]', 0.682),
  ('YRCEKISQVLVI [CTF13 C-terminal 12 aa]', 0.495),
  ('GGNLPQGYFYTQ [GTS1 C-terminal 12 aa]', 0.696),
  ('AAIPVILAKIKV [SHE4 C-terminal 12 aa]', 0.56),
  ('SEPTNDDLDATK [MRX10 C-terminal 12 aa]', 0.675),
  ('KDGFVLYSYGQK [SKP2 C-terminal 12 aa]', 0.738),
  ('EEGEVVEEEAEK [HSP78 C-terminal 12 aa]', 0.685),
  ('ACYVQLKKSGAF [COX8 C-terminal 12 aa]', 0.669),
  ('ALENENKRKAKL [CAT2 C-terminal 12 aa]', 0.798),
  ('NTGFDPHLEDGM [TBF1 C-terminal 12 aa]', 0.691),
  ('IDLVLVVNVLSL [YCR064C C-terminal 12 aa]', 0.428),
  ('GQGTTLGGPFFP [ALB1 C-terminal 12 aa]', 0.722),
  ('NLMEMFTKRDRS [ROD1 C-terminal 12 aa]', 0.713);
